- Target or test system: SIK2 (Homo sapiens)
- Construct: purchased ThermoFisher Scientific PV4792
- Sequence (Q9H0K1 whole entry): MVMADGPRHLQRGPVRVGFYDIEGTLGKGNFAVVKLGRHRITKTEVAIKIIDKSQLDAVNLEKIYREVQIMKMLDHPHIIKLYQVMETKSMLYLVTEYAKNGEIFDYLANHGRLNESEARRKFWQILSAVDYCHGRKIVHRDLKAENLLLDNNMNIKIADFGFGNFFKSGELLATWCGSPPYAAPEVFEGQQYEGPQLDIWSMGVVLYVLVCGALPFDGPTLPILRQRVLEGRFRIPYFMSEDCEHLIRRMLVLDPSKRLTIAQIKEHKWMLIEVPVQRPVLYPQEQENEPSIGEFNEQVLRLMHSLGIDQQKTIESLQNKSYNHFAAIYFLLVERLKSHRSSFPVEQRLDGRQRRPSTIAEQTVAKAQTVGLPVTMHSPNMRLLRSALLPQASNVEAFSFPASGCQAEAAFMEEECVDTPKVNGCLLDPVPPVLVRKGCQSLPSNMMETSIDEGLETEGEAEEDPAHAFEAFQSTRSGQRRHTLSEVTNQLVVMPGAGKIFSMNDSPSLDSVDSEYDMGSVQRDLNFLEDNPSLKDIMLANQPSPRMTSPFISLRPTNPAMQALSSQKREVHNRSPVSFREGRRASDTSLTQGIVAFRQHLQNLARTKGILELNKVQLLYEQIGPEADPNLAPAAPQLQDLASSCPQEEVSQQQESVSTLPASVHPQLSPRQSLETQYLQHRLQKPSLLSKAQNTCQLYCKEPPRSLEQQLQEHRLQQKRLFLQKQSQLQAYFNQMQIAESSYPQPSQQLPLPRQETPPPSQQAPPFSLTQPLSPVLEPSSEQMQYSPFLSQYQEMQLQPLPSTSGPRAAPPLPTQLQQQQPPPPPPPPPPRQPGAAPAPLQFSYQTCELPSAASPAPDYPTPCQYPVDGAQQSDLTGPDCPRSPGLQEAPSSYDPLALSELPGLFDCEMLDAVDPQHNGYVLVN
- Protocol text: ADP-Glo kinase assay, SIK2
- Assay type: biochemical
Consider the following compounds; for each one, report its IC50.

**Q:** Look at this compound and give its reported IC50. COC(=O)C(C)(C#N)c1ccn2c(-c3cc(OC)c(C(=O)NC4CC4)c(OC(F)F)c3)cnc2c1 (stereo not shown) [Cpd 184]
**A:** > 500 nM

**Q:** Look at this compound and give its reported IC50. COc1cc(-c2cnc3cc([C@@](C)(O)C4CC4)ccn23)cc(OC(F)F)c1C(=O)NC1CC1 (single isomer, unassigned) [Cpd 162]
**A:** > 500 nM

**Q:** Look at this compound and give its reported IC50. COc1cc(-c2cnn3cc(C4CCOCC4)ccc23)cc(OC(F)F)c1C(=O)NC1CC1 [Cpd 112]
**A:** 10 to 100 nM

**Q:** Look at this compound and give its reported IC50. COc1cc(-c2cnc3cc(C4CCCN4C)ccn23)cc(OC(F)F)c1C(=O)NC1CC1 (stereo not shown) [Cpd 171]
**A:** > 500 nM

**Q:** Look at this compound and give its reported IC50. COc1cc(-c2cnc3cc(C(C)(C)C#N)ccn23)cc(OC(F)F)c1C(=O)N1CC(C#N)C1 [Cpd 77]
**A:** > 500 nM

**Q:** Look at this compound and give its reported IC50. COc1cc(-c2cnn3cc(C(C)(C)c4noc(C)n4)ccc23)cc(OC(F)F)c1C(=O)NC1CC1 [Cpd 247]
**A:** > 500 nM

**Q:** Look at this compound and give its reported IC50. COc1cc(-c2cnc3cc(C(C)(C)C#N)ccn23)cc(OC(F)F)c1C(=O)N[C@@H]1C[C@H]1F (racemic) [Cpd 225]
**A:** > 500 nM

**Q:** Look at this compound and give its reported IC50. COc1cc(-c2cnc3cc(C4CCCN4C(C)=O)ccn23)cc(OC(F)F)c1C(=O)NC1CC1 (stereo not shown) [Cpd 198]
**A:** > 500 nM

**Q:** Look at this compound and give its reported IC50. COCC(C)(O)c1ccn2c(-c3cc(OC)c(C(=O)NC4CC4)c(OC(F)F)c3)cnc2c1 (stereo not shown) [Cpd 182]
**A:** > 500 nM

**Q:** Look at this compound and give its reported IC50. COc1cc(-c2cnn3cc(C(C)(C)CN4CCOCC4)ccc23)cc(OC(F)F)c1C(=O)N[C@@H]1C[C@@H]1F [Cpd 269]
**A:** > 500 nM

**Q:** Look at this compound and give its reported IC50. COc1cc(-c2cnc3cc(C4COC4)ccn23)cc(OC(F)F)c1C(=O)N[C@@H]1C[C@@H]1F [Cpd 206]
**A:** 10 to 100 nM

**Q:** Look at this compound and give its reported IC50. COc1cc(-c2cnn3cc(C(C)(C)S(C)(=O)=O)ccc23)cc(OC(F)F)c1C(=O)N[C@@H]1C[C@@H]1F [Cpd 246]
**A:** > 500 nM

**Q:** Look at this compound and give its reported IC50. COc1cc(-c2cnc3cc(C(C)(C)C#N)ccn23)cc(OC(F)F)c1C(=O)NC1CC(F)(F)C1 [Cpd 88]
**A:** > 500 nM

**Q:** Look at this compound and give its reported IC50. COc1cc(-c2cnn3cc(C4(NCC(F)F)CCC4)ccc23)cc(OC(F)F)c1C(=O)N[C@@H]1C[C@@H]1F [Cpd 271]
**A:** > 500 nM

**Q:** Look at this compound and give its reported IC50. COc1cc(-c2cnc3cc(C(C)NC(C)C)ccn23)cc(OC(F)F)c1C(=O)NC1CC1 (stereo not shown) [Cpd 149]
**A:** > 500 nM

**Q:** Look at this compound and give its reported IC50. COc1cn2c(-c3cc(OC)c(C(=O)NC4CC4)c(OC(F)F)c3)cnc2cc1C1COC1 [Cpd 215]
**A:** 100 to 500 nM

**Q:** Look at this compound and give its reported IC50. COc1cc(-c2cnc3cc(C(C)N4CCCC4)ccn23)cc(OC(F)F)c1C(=O)NC1CC1 (stereo not shown) [Cpd 153]
**A:** > 500 nM

**Q:** Look at this compound and give its reported IC50. COc1cc(-c2cnc3cc(C(C)(C)C#N)ccn23)cc(OC(F)F)c1C(=O)NC1CCOC1 (stereo not shown) [Cpd 86]
**A:** > 500 nM

**Q:** Look at this compound and give its reported IC50. CCCCOC(=O)NC(C)(C)c1ccc2c(-c3cc(OC)c(C(=O)N[C@@H]4C[C@@H]4F)c(OC(F)F)c3)cnn2c1 [Cpd 264]
**A:** > 500 nM

**Q:** Look at this compound and give its reported IC50. COc1cc(-c2cnc3cc(C4CCOCC4)c(OCCO)cn23)cc(OC(F)F)c1C(=O)NC1CC1 [Cpd 183]
**A:** 100 to 500 nM

**Q:** Look at this compound and give its reported IC50. COc1cc(-c2cnc3cc(C4CCOCC4)ncn23)cc(OC(F)F)c1C(=O)NC1CC1 [Cpd 109]
**A:** > 500 nM

**Q:** Look at this compound and give its reported IC50. COc1cc(-c2cnc3cc(C(C)(C)F)ccn23)cc(OC(F)F)c1C(=O)NC1CC1 [Cpd 133]
**A:** 100 to 500 nM

**Q:** Look at this compound and give its reported IC50. COCCOc1cc(-c2cnn3cc(C(C)(C)C#N)ccc23)cc(OC)c1C(=O)NC1CC1 [Cpd 260]
**A:** > 500 nM

**Q:** Look at this compound and give its reported IC50. COc1cc(-c2cnc3cc(C(C)(O)C4CCOCC4)ccn23)cc(OC(F)F)c1C(=O)NC1CC1 (stereo not shown) [Cpd 134]
**A:** > 500 nM

**Q:** Look at this compound and give its reported IC50. COc1cc(-c2cnc3cc(C4CCCNC4)ccn23)cc(OC(F)F)c1C(=O)NC1CC1 (stereo not shown) [Cpd 65]
**A:** 10 to 100 nM

**Q:** Look at this compound and give its reported IC50. COc1cc(-c2cnn3cc(C(C)(C)NCCO)ccc23)cc(OC(F)F)c1C(=O)N[C@@H]1C[C@@H]1F [Cpd 268]
**A:** > 500 nM

**Q:** Look at this compound and give its reported IC50. COc1cc(-c2cnc3cc(C4CCOCC4)c(F)cn23)cc(OC(F)F)c1C(=O)NC1CC1 [Cpd 166]
**A:** 100 to 500 nM

**Q:** Look at this compound and give its reported IC50. COc1cc(-c2cnn3cc(C(C)(C)C#N)cnc23)cc(OC(F)F)c1C(=O)N[C@@H]1C[C@@H]1F [Cpd 231]
**A:** > 500 nM

**Q:** Look at this compound and give its reported IC50. COc1cc(-c2cnn3cc(C4(N)CCC4)ccc23)cc(OC(F)F)c1C(=O)N[C@@H]1C[C@@H]1F [Cpd 261]
**A:** > 500 nM

**Q:** Look at this compound and give its reported IC50. COc1cc(-c2cnc3cc(C(C)(C)C#N)ccn23)cc(OC(F)F)c1C(=O)NC1COC1 [Cpd 43]
**A:** > 500 nM

**Q:** Look at this compound and give its reported IC50. COc1cc(-c2cnc3cc(C(C)(C)C(C)O)ccn23)cc(OC(F)F)c1C(=O)NC1CC1 (stereo not shown) [Cpd 172]
**A:** > 500 nM
